- assay_protocol: Partition coefficient, log P of the compound
- Format: physicochemical
- test_conditions: octanol/water
Collected logP values appear next to each entry.
Respond with the number and no other words.

Here is how some compounds turned out for logP.
* O=C1OC(=O)C2C3CCC(O3)C12 (centres undefined) [DEMETHYL-CANTHARIDIN] | 0.7
* O=C(Nc1ccc(S(=O)(=O)N2CCOCC2)cc1)C1C(C(=O)O)[C@H]2CC[C@@H]1O2 (some centres undefined) | 0.4

*Q* // query logP value for entry O=C(Nc1ccc(S(=O)(=O)NC2CCCCC2)cc1)C1C(C(=O)O)[C@H]2CC[C@@H]1O2 (some centres undefined)
*A* 0.2

*Q* Same lookup for O=C(Nc1ccc(S(=O)(=O)NC2CCCC2)cc1)C1C(C(=O)O)[C@H]2CC[C@@H]1O2 (some centres undefined) , please.
*A* 0.2
